# System Name: T1, human TREM2 (human, UniProt Q9NZC2 19-174, limits assumed)
# T1 construct: also called triggering receptor expressed on myeloid cells 2
# T1 sequence: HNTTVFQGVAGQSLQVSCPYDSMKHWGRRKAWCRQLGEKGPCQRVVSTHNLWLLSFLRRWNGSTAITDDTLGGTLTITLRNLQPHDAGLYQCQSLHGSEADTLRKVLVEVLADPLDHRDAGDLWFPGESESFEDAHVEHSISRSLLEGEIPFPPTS
# Test Details: 2nd screen 10 nM
# key: entry, value: Binding Signal (fold over 6E7 Parental antibody)
Response body: numeric value in fold, unit text excluded.

V76 (antibody, V domains shown) VH: EVQLVQSGAEVKKPGESLKISCKGSGYSFGSYWIAWVRQMPGKGLEWMGIIYPGDSDTRYSPEFQGQVTISADKSISTAYLQWSSLKASDTAMYFCARQRTFYYDSSDYSDYWGQGTLVTVSS VL: DIQMTQSPSSVSASVGDRVTITCRASQGISSWLAWYQQKPGKAPKLLIYAASSLQKGVPSRFSGSGSGRDFTLTISSLQPEDFATYFCQQADSFPRTFGQGTKLEIK ... 4.93

Reported Binding Signal (fold over 6E7 Parental antibody) for V73 (antibody, V domains shown) VH: EVQLVQSGAEVKKPGESLKISCKGSGYSFGSYWIAWVRQMPGKGLEWMGIIYPGDSDTRYSPGFQGQVTISADKSISTAYLQWSSLKASDTAMYFCARGRTFYYDSSDYFDYWGQGTLVTVSS VL: DIQMTQSPSSVSASVGDRVTITCRASQGISSWLAWYQQKPGKAPKLLIYAASSRQNGVPSRFSGSGSGTDFTLTISSLQPEDFATYFCQQADSYPRTFGQGTKLEIK was 5.44

Reported Binding Signal (fold over 6E7 Parental antibody) of V1 (antibody, V domains shown) VH: EVQLVQSGAEVKKPGESLKISCKGSGYSFTSSWIAWVRQMPGKGLEWMGIIYPGDSDTRYSPSFQGQVTISADKSISTAYLQWSSLKASDTAMYFCARSRTFYYDSSDYFDYWGQGTLVTVSS VL: DIQMTQSPSSVSASVGDRVTITCRASQGISSWLAWYQQKPGKAPKLLIYAASSLTNGVPSRFSGSGSGTDFTLTISSLQPEDFATYFCQQADSYPRTFGQGTKLEIK : 1.92
